# assay remarks: NCI Yeast Anticancer Drug Screen. Data for the rad50 strain (AID 155);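 further: 0% = growth of vehicle-only cultures of the same strain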
# experimental parameters: S. cerevisiae rad50 strain growth inhibition; at 50.0 µM; stronger effect = higher value
The panel holds about 79,000 compounds, 15% with a hit somewhere; the sample as a whole holds those more often.
measurement label: growth inhibition (%)
Write it as a number; the unit % goes unstated.

Sample answers from the record:
CCCCCN(CCOC(=O)c1ccc([N+](=O)[O-])cc1)CCOC(=O)c1ccc([N+](=O)[O-])cc1 : 7.5
CC(=O)OCc1cocc1COC(C)=O : -17.2
Nc1ccc(/C=C/c2ccc(N)cc2)cc1 : 9.05

### Prompt Data request, read-out growth inhibition, for `CCC[n+]1ccc(CCS(=O)(=O)c2ccc(N)cc2)cc1`
### Response 6.15

### Prompt Data request, read-out growth inhibition, for CS(=O)(=O)OCC1C2CCC(CC2)C1COS(C)(=O)=O (stereo unspecified)
### Response 4.5

----------
growth inhibition overview
# assay remarks: NCI Yeast Anticancer Drug Screen. Data for the mec2-1 strain (AID 157)
# experimental parameters: S. cerevisiae mec2-1 strain, at 50.0 µM, stronger effect = higher value
Compounds without any hit were thinned out: in the full panel of roughly 79,000, 15% have a hit.
Write it as a number; the unit % goes unstated.

Cc1ccc2nc(-c3ccc(-c4nc5ccc(C)cc5o4)c(O)c3)oc2c1 : -14.4
O=S(=O)(Nc1ccc(NS(=O)(=O)c2ccccc2)nc1)c1ccccc1 : -0.55

### Prompt Data request, read-out growth inhibition, for `S=C(Cc1cccnc1)N1CCOCC1`
### Response 41.5

### Prompt Data request, read-out growth inhibition, for `NC(=O)CCCCCCCC(=O)O`
### Response -5.7

### Prompt Data request, read-out growth inhibition, for `O=C(O)Cc1ccc2ccccc2c1`
### Response 13.2

### Prompt Data request, read-out growth inhibition, for `CNC(=S)NNC1=NCCCN1`
### Response -10.2

### Prompt Data request, read-out growth inhibition, for `Cc1ccc(S(=O)(=O)N/N=C/C(C)(c2ccccc2)c2ccccc2)cc1`
### Response 52

### Prompt Data request, read-out growth inhibition, for `COc1ccccc1-c1cc(=O)c2c(C)cc(C)nc2[nH]1`
### Response -16.1

----------
# assay remarks: NCI Yeast Anticancer Drug Screen. Data for the sgs1 mgt1 strain (AID 161);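 further: 0% = growth of cultures given vehicle only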
# experimental parameters: S. cerevisiae sgs1 mgt1 strain, at 50.0 µM, stronger effect = higher value
The panel holds about 79,000 compounds, 15% with a hit somewhere; the sample as a whole holds those more often. Active and inactive are the calls of the source. Rule as the data show it: active = growth inhibition above about 70%; inactive = the rest.
measurement label: growth inhibition

### Prompt Data request, read-out growth inhibition, for CC(=O)OCC(=O)O[C@@H]1[C@H]2[C@@H](OC(=O)c3ccccc3)[C@@H](C)C[C@]2(O)[C@H](OC(C)=O)[C@@]2(C)C(OC(C)=O)[C@]1(OC(C)=O)C[C@H]1C(=O)C(C)(C)C[C@@H]12 (some centres not stated)
### Response -36.5% (inactive)

### Prompt Data request, read-out growth inhibition, for `Cc1c(NC(=O)Nc2c(Cl)cccc2Cl)c(=O)n(-c2ccccc2)n1C`
### Response -15.5% (inactive)

### Prompt Data request, read-out growth inhibition, for `CCNC(=S)NCC`
### Response 20.6% (inactive)

----------
# assay remarks: NCI Yeast Anticancer Drug Screen. Data for the bub3 strain (AID 167)
# experimental parameters: S. cerevisiae bub3 mutant strain, at 50.0 µM, stronger effect = higher value
This is part of a sample that, as a whole, favours compounds with a hit. Of some 79,000 tested, about 15% had one in any assay.
measurement label: growth inhibition (%)
Write it as a number; the unit % goes unstated.

Sample answers from the record:
Cc1cc2nnn(C3CCCCO3)c2cc1C (stereo unspecified) : 12.8
CC(=O)N(C(C)=O)c1cc2c3c(c1)CCCN3CCC2 : -16.1
COc1cccc(CNc2ncnc3nc[nH]c23)c1 : -3.85
CC(=Nc1ccc(C)cc1)NNc1nc2ccccc2s1 : 17.3
O=C(NCCCn1ccnc1[N+](=O)[O-])C(=O)NCCCn1ccnc1[N+](=O)[O-] : -32

### Prompt Data request, read-out growth inhibition, for `Cn1c(=O)c2c(nc(C[N+]3([O-])CCOCC3)n2C)n(C)c1=O`
### Response -11.5

meta.source: PubChem BioAssay (NCI)
